Tested on: Mus musculus
run-description: In vivo analgesic activity evaluated by using acetic acid writhing test in mice administered subcutaneously at a dose of 10 mg/kg
Format: functional
study-conditions: sc, route subcutaneous
readout-kind: inhibition in vivo at 10 mg/kg (%)
Hi! Could you send only the number? It should be in %, unit omitted.

The examples below pair each entry with its known result.
input: Could you share what inhibition in vivo at 10 mg/kg was measured for CCOC(CN1CC[N+]2(CCCC2)CC1)CN1CC[N+]2(CCCC2)CC1 , tested on Mus musculus?
output: 46

input: Param item: CCCCCCOC(CN1CC[N+]2(CCCC2)CC1)CN1CC[N+]2(CCCC2)CC1
output: 91

input: Param item: C(CN1CC[N+]2(CCCC2)CC1)CN1CC[N+]2(CCCC2)CC1
output: 96

Read the next record carefully.
input: Could you share what inhibition in vivo at 10 mg/kg was measured for CN1CCN(C(=O)CCCCC(=O)N2CCN(C)CC2)CC1 , tested on Mus musculus?
output: 10.9
